// reported T/C per item
# Tested on: CD2F1 mice, L1210 leukemia ip, survival T/C
# test-details: NCI In Vivo Anticancer Drug Screen. Data for tumor model L1210 Leukemia (intraperitoneal) in CD2F1 (CDF1) mice
# reported-conditions: endpoint: mean survival time; dose: 100.0 mg/kg/injection; schedule: Q04DX002 (ip); vehicle: saline with Tween-80; higher = longer survival
Inconclusive results and toxic doses are left out.

Any idea what T/C was measured for CC1C=CC(C)S1 (configuration not stated) ?
101 % of control

Any idea what T/C was measured for c1ccc2c(c1)Sc1ccccc1N2CCCNC1=NCCO1 ?
94 % of control

Any idea what T/C was measured for CCOC(CCCO)OCC ?
103 % of control

Any idea what T/C was measured for O=C(O)c1cccc(F)c1Cl ?
95 % of control

Any idea what T/C was measured for Cc1c(C)c(C)c(CN2CCC(C)CC2)c(C)c1C ?
98 % of control

Any idea what T/C was measured for N#CCCN=C1C=CC(=C(c2ccccc2)c2ccc(NCCC#N)cc2)C=C1 ?
103 % of control

Any idea what T/C was measured for CC1=NCCCN=C(C)CC[N-]CCC[N-]CC1.[Ni+2].[O-][Cl+3]([O-])([O-])O ?
103 % of control

Any idea what T/C was measured for COc1c(C)c2c(c3c1CC(O)O3)C(=O)OC2 (configuration not stated) ?
112 % of control

Any idea what T/C was measured for CC(=O)NC1C(OC(C)=O)OC(COC(c2ccccc2)(c2ccccc2)c2ccccc2)C(O)C1OC(C)=O (configuration not stated) ?
88 % of control

Any idea what T/C was measured for Cc1sc2cc(N)ccc2[n+]1C ?
98 % of control

Any idea what T/C was measured for N.N.N.N.O=C([O-])C([O-])C(O)C(=O)[O-].O=[N+]([O-])[O-].[Co+3] (configuration not stated) ?
110 % of control

Any idea what T/C was measured for CC(C)(C[P+](C)(c1ccccc1)c1ccccc1)c1ccccc1 ?
102 % of control
